These measurements were taken from patent US10934255B2.

target: HDAC10 (Homo sapiens); assay: HDAC10 isoform selectivity assay; assay type: biochemical; conditions: Table 2 isoform selectivity; read-out: HDAC Inhibition (IC50 uM) isoform 10
Sequence (Q969S8 whole entry, canonical isoform): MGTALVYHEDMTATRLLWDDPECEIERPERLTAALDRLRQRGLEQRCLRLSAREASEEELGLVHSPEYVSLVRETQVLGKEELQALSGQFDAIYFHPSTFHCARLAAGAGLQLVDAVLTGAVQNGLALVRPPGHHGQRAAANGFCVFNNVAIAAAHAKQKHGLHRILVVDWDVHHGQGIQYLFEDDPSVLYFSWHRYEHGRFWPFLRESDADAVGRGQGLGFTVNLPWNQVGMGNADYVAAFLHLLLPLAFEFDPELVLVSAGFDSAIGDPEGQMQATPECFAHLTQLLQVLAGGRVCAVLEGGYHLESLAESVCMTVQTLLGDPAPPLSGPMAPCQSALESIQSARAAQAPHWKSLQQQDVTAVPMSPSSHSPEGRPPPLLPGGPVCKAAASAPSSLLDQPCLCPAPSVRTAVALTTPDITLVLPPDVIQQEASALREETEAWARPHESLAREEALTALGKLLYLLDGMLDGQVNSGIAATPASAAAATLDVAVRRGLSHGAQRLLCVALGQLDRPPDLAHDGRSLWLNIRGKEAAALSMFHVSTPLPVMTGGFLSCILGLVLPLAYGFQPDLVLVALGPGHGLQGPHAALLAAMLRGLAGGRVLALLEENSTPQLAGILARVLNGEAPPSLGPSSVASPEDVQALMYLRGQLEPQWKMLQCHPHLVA
Could you please report measured IC50 for the items listed next?
Numbers only, in µM.

// known answers, use as guide
O=C(NO)c1ccc(CN2CCc3ccc(Cl)cc32)cc1 ... 6.39
Cn1c(NCc2ccc(C(=O)NO)cc2)nc2ccccc21 ... 5.95

Now look at this entry.
Look up IC50: `O=C(NO)c1ccc(CN2CCc3ccc(F)cc32)cc1` 6.03

* * *

target: HDAC2 (Homo sapiens); test: HDAC2 isoform selectivity assay; assay type: biochemical; details: Table 2 isoform selectivity; read-out: HDAC Inhibition (IC50 uM) isoform 2
Sequence (Q92769 whole entry, canonical isoform): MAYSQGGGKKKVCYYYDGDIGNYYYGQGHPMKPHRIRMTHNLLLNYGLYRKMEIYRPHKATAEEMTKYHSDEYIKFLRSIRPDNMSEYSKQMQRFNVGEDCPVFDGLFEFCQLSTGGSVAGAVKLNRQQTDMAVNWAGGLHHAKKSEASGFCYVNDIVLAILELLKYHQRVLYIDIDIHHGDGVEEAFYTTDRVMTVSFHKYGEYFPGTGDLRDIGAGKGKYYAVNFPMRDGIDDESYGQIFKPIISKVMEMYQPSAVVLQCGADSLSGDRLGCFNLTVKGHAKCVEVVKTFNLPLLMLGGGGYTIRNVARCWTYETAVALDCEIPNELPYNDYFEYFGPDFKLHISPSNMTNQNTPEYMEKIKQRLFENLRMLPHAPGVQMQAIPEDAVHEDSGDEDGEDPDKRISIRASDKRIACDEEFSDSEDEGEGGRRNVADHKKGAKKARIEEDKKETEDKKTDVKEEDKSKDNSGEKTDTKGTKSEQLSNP
RESULT TYPE: IC50 (µM)
Give bare numbers, in µM.

// known answers, use as guide
Cn1c(NCc2ccc(C(=O)NO)cc2)nc2ccccc21 [II-ING-13] ... 5.2
O=C(NO)c1ccc(CN2CCc3ccc(F)cc32)cc1 [II-ING-41] ... 7.15

Now look at this entry.
Look up IC50: O=C(NO)c1ccc(CN2CCc3ccc(Cl)cc32)cc1 [II-ING-6] 6.24

* * *

molecular target: Human HDAC1 (Homo sapiens, UniProt Q13547); construct: Full length with C-terminal GST tag, MW=79.9 kDa; GST (C); host or cells: Sf9 insect cells (baculovirus); assay: HDAC1 inhibition assay (fluorogenic p53 peptide substrate); assay type: biochemical; conditions: Table 2 isoform selectivity; read-out: HDAC Inhibition (IC50 uM) isoform 1
Sequence (Q13547 whole entry, canonical isoform): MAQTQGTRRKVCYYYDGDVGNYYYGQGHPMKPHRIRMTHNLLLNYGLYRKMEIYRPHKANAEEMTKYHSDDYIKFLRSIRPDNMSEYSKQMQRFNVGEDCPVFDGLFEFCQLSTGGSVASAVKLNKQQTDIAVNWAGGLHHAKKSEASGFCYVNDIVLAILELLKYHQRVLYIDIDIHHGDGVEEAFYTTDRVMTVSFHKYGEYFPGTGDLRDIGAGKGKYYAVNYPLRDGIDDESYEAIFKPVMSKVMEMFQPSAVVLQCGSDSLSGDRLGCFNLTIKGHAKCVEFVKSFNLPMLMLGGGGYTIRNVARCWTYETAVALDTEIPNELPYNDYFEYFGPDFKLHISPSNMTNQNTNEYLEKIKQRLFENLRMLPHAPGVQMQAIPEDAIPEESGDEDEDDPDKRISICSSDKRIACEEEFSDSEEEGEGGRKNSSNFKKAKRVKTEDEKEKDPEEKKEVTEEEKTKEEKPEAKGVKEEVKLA
RESULT TYPE: IC50 (µM)
Answers are plain numbers, in µM.

// known answers, use as guide
O=C(NO)c1ccc(CN2CCc3ccc(Cl)cc32)cc1 ... 3.77
Cn1c(NCc2ccc(C(=O)NO)cc2)nc2ccccc21 ... 2.55

Now look at this entry.
Look up IC50: `O=C(NO)c1ccc(CN2CCc3ccc(F)cc32)cc1` 3.67

* * *

assay: Blood brain barrier test: tissue concentration after iv injection; type: in vivo, Mouse; settings: liver; Mouse 1, iv 7.5 mg/kg in DMSO, after 20 minutes; read-out: Concentration, Liver
RESULT TYPE: concentration at 20 min (ng/g)
Numbers only, in ng/g.

Look up concentration at 20 min: O=C(NO)c1ccc(CN2CCc3ccc(Cl)cc32)cc1 [II-ING-6] 501

* * *

target: Human HDAC6 (Homo sapiens); construct: Full length with N-terminal GST tag, MW=159 kDa; GST (N); host or cells: Sf9 insect cells (baculovirus); experiment: HDAC6 inhibition assay (fluorogenic p53 peptide substrate); format: biochemical; details: Table 1; performed by Reaction Biology Corporation; read-out: HDAC isoform IC50 (nM) 6
// NB: equality with 10 nM counts as Condition not met; only IC50 strictly below is Condition met

Would you please look over these solved cases?
O=C(NO)c1ccc(CN2CCc3cc(Cl)ccc32)cc1F [II-ING-51] ... Condition not met
O=C(NO)c1ccc(CNc2nc3ccccc3n2-c2ccccc2)cc1 [II-ING-87] ... Condition not met
C[N+]1(C)CCC2(CC1)C(=O)N(Cc1ccc(C(=O)NO)cc1)c1ccccc12 [II-ING-109] ... Condition not met
COc1ccc2c(c1)CCN2Cc1ccc(C(=O)NO)cc1 [II-ING-49] ... Condition not met

Continue with the next compound.
Threshold test, IC50 < 10 nM: CC1(C)C(=O)N(Cc2ccc(C(=O)NO)cc2)c2ccccc21 [II-ING-101] Condition met

* * *

Molecular target: Human HDAC6 (Homo sapiens)
Construct: Full length with N-terminal GST tag, MW=159 kDa; GST (N); host or cells: Sf9 insect cells (baculovirus)
Sequence (Q9UBN7 1-1215): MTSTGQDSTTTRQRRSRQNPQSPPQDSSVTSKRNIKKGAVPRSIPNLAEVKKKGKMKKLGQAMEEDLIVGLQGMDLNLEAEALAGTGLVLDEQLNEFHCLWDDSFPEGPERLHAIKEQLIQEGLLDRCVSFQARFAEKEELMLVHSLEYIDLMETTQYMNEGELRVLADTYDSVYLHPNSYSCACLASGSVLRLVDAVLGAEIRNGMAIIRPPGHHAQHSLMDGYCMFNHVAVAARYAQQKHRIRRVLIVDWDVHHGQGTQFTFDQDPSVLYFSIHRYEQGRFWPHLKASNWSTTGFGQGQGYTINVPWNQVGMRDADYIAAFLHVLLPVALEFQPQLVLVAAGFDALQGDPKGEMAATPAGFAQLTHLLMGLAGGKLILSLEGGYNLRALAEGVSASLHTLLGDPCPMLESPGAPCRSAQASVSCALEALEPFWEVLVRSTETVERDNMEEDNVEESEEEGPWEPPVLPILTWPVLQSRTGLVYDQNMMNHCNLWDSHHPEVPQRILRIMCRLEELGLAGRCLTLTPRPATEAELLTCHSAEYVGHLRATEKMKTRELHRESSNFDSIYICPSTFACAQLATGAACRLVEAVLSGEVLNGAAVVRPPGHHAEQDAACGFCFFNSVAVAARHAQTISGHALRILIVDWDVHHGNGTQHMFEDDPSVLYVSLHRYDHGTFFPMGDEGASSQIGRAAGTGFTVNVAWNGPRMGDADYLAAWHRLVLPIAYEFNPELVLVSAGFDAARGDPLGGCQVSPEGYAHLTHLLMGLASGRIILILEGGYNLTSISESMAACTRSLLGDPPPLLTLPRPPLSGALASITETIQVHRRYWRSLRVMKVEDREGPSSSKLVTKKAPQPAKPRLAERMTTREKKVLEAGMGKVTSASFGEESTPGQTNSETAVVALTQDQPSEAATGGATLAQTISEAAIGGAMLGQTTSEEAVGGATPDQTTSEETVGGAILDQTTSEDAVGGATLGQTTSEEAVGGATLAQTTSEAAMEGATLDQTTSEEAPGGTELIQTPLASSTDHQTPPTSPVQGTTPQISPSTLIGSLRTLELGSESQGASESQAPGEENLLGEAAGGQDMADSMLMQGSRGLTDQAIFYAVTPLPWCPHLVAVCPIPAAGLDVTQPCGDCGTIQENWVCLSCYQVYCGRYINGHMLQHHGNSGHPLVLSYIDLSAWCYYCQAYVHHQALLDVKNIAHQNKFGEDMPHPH
Test: HDAC6 inhibition assay (fluorogenic p53 peptide substrate)
Format: biochemical
Settings: Table 1; performed by Reaction Biology Corporation; read-out: HDAC isoform IC50 (nM) 6
RESULT TYPE: IC50

O=C(NO)c1ccc(CN2C(=O)C(F)(F)c3ccccc32)cc1 ... 4.1 nM
O=C(NO)c1cccc(CN2C(=O)C(F)(F)c3ccccc32)c1 ... 5560 nM
O=C(NO)c1ccc(CN2CCc3ccc(Cl)cc32)cc1 ... 11.5 nM
O=C(NO)c1ccc(CN2CCc3ccc(F)cc32)cc1 ... 16.7 nM

Answer for every listed entry: what is its IC50? The entries follow.
1. O=C(NO)c1ccc(CN2CCc3cc(Cl)ccc32)cc1
2. C[N+]1(C)CCC2(CC1)C(=O)N(Cc1ccc(C(=O)NO)cc1)c1ccccc12 [II-ING-118]
3. O=C(NO)c1ccc(CN2CC3(CC3)c3cc(F)ccc32)cc1
4. O=C(NO)c1ccc(CN2CCc3cc(F)ccc32)cc1

1: 21.5 nM; 2: 5.8 nM; 3: 8.2 nM; 4: 13.1 nM

* * *

test: Blood brain barrier test: tissue concentration after iv injection; format: in vivo, Mouse; details: plasma; Mouse 2, iv 10 mg/kg in DMSO, after 20 minutes; read-out: Concentration, Plasma
RESULT TYPE: concentration at 20 min (ng/g)
Give bare numbers, in ng/g.

Look up concentration at 20 min: `O=C(NO)c1ccc(CN2CCc3ccc(Cl)cc32)cc1` 387

* * *

biological target: HDAC7 (Homo sapiens, UniProt Q8WUI4); assay: HDAC7 isoform selectivity assay; assay type: biochemical; details: Table 2 isoform selectivity; read-out: HDAC Inhibition (IC50 uM) isoform 7
Sequence (Q8WUI4 whole entry, canonical isoform): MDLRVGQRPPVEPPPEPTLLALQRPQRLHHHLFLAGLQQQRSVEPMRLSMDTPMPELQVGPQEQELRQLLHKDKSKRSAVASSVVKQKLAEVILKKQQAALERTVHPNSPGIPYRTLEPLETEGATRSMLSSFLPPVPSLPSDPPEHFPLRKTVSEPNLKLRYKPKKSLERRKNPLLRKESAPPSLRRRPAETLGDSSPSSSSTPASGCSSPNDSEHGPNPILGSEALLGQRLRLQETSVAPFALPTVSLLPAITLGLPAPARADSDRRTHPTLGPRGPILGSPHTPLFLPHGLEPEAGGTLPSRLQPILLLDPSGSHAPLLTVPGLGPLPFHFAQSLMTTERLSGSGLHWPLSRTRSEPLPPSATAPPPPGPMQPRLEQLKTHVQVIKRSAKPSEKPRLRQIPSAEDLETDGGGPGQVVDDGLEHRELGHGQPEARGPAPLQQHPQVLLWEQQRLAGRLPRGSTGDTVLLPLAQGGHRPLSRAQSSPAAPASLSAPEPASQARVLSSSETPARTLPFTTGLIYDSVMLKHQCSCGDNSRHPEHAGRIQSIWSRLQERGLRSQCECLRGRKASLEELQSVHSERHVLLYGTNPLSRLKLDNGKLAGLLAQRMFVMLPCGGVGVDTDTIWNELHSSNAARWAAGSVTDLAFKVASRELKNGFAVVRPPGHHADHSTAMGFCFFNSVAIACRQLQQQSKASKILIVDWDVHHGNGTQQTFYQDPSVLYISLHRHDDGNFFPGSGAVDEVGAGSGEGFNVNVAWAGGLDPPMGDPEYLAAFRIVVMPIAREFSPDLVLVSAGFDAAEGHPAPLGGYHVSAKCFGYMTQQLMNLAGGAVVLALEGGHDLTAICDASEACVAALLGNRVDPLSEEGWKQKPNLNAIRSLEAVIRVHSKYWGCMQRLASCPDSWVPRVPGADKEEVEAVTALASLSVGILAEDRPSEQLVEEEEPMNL
Could you please report measured IC50 for the items listed next?
One number for each entry, in µM.

Cn1c(NCc2ccc(C(=O)NO)cc2)nc2ccccc21 [II-ING-13] ... 0.55
O=C(NO)c1ccc(CN2CCc3ccc(Cl)cc32)cc1 [II-ING-6] ... 0.98

Now look at this entry.
Tell me reported IC50 for O=C(NO)c1ccc(CN2CCc3ccc(F)cc32)cc1 [II-ING-41] , tested with HDAC7 (Homo sapiens, UniProt Q8WUI4). 0.46

* * *

target: Human HDAC1 (Homo sapiens, UniProt Q13547); construct: Full length with C-terminal GST tag, MW=79.9 kDa; GST (C); host or cells: Sf9 insect cells (baculovirus); assay: HDAC1 inhibition assay (fluorogenic p53 peptide substrate); format: biochemical; settings: Table 1; performed by Reaction Biology Corporation; read-out: HDAC isoform IC50 (nM) 1
RESULT TYPE: IC50 (nM)
Answers are plain numbers, in nM.

// known answers, use as guide
COc1ccc2c(c1)CCN2Cc1ccc(C(=O)NO)cc1 ... 4950
Cn1c(NCc2ccc(C(=O)NO)cc2)nc2ccccc21 ... 2630
Cn1c(NCc2ccc(C(=O)NO)cc2)nc2cc(Cl)ccc21 ... 1500
CC1(C)C(=O)N(Cc2ccc(C(=O)NO)cc2)c2ccccc21 ... 7880

Answer for every listed entry: what is its IC50? The entries follow.
1. O=C(NO)c1ccc(CN2CCc3ccc(OCc4ccccc4)cc32)cc1
2. O=C(NO)c1ccc(CN2CC3(CC3)c3cc(F)ccc32)cc1
3. O=C(NO)c1ccc(CN2CCc3ccccc32)cc1
4. O=C(NO)c1ccc(CN2CCc3cc([N+](=O)[O-])ccc32)cc1
5. O=C(NO)c1ccc(CNc2nc3ccccc3n2-c2ccccc2)cc1
6. O=C(NO)c1ccc(CN2C(=O)C(F)(F)c3ccccc32)cc1
7. O=C(NO)c1ccc(CN2CCc3ccc(Cl)cc32)cc1
8. C[N+]1(C)CCC2(CC1)C(=O)N(Cc1ccc(C(=O)NO)cc1)c1ccccc12 [II-ING-118]

1. 1850
2. 4700
3. 17600
4. 1970
5. 3230
6. 3550
7. 5580
8. 7880

Answer for every listed entry: what is its IC50? The entries follow.
1. C[N+]1(C)CCC2(CC1)C(=O)N(Cc1ccc(C(=O)NO)cc1)c1ccccc12 [II-ING-109]
2. O=C(NO)c1ccc(CN2CCc3ccc(F)cc32)cc1
3. O=C(NO)c1ccc(CN2CCc3cc(F)ccc32)cc1
4. O=C(NO)c1ccc(CN2CCc3cc(F)c(Cl)cc32)cc1
5. CC1(C)CN(Cc2ccc(C(=O)NO)cc2)c2ccccc21
6. O=C(NO)c1ccc(CN2CCc3cc(Cl)ccc32)cc1

1. 19700
2. 11800
3. 20000
4. 7820
5. 18700
6. 12700
